- MEASURED ON: CfEcR-DEF mutant A110N (Choristoneura fumiferana, UniProt O77255, A393N)
- Sequence (O77255 entry or part of it A393N): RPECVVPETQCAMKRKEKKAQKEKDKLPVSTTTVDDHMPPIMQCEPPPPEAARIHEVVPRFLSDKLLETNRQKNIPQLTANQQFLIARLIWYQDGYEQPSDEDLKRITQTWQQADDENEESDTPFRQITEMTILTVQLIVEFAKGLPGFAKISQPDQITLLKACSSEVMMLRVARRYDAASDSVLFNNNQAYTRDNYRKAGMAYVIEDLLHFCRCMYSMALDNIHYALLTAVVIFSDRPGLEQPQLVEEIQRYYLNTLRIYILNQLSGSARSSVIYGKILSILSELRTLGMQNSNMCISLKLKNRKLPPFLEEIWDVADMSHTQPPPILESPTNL
- Sequence (P28702 299-449, stated change not applied, further chain): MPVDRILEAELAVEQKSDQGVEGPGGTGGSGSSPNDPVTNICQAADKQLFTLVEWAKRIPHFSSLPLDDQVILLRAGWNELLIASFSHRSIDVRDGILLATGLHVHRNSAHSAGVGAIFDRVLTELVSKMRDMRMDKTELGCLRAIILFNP
- TEST DETAILS: cell-based
Would you mind telling me the reported pEC50 of each entry?
Value format note: pEC50 is -log10 of concentration (mol/L); just state the number.

Tell us which pEC50 value is on record for Cc1cc(C)cc(C(=O)N(NC(=O)c2cccc(C(C)C)c2C)C(C)(C)C)c1
6.14

Tell us which pEC50 value is on record for CCc1cccc(C(=O)NN(C(=O)c2cc(C)cc(C)c2)C(C)(C)C)c1C
6.06

Tell us which pEC50 value is on record for CCc1c(OC)cccc1C(=O)NN(C(=O)c1cc(C)cc(C)c1)C(C)(C)C
5.85
